# measurement-target: UniProt P25105
# Sequence (P25105 whole entry): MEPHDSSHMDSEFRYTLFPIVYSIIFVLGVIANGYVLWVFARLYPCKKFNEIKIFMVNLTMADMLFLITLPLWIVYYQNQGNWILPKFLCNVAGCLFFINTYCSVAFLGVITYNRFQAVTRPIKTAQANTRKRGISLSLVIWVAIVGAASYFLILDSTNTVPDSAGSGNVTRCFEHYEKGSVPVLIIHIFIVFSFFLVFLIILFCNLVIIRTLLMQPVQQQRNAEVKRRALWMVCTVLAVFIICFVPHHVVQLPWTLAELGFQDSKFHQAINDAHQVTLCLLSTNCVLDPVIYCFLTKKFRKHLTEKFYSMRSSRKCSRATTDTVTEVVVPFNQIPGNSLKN
# test: Tested in vitro for the inhibition of [3H]PAF receptor binding to washed human platelet membranes at a concentration of 10000 nM
experimental-readout: inhibition (%)

{"molecule": "COc1ccc(C2CCC(OCCCc3ccccn3)O2)cc1OC (centres undefined)", "experimental-readout": "inhibition", "val": 20}

A. COc1ccc(C2CCC(OCCCc3ccccc3)O2)cc1OC (centres undefined)
B. COc1ccc(C2CCC(Cc3cccnc3)O2)cc1OC (centres undefined)
C. CCCCCCCC1CCC(OCCCc2cccnc2)O1 (centres undefined)
Order these by inhibition, descending, and give the full ranking. Provide the labels, sequenced as the question asks. B, C, A
